Each recorded value in this set is attributed to patent US9695155B2.

tested on: wild mustard; experiment: Test D preemergence; format: in vivo, Sinapis arvensis; details: Brassica, pre-emergence, 31 g ai/ha, scale 0-100, read-out: Plant response rating, Mustard, Wild
Each record here notes measured pest or weed control at 31 g/ha.

| test smiles | pest or weed control at 31 g/ha |
| --- | --- |
| FC(F)(F)c1cnn(-c2ccccc2Oc2ncc(Br)cn2)c1 | 85% |
| Fc1cccc(Oc2ncc(Cl)cn2)c1-n1cc(Br)cn1 | 35% |
| N#Cc1cccc(Oc2ncc(Br)cn2)c1-n1cc(C(F)(F)F)cn1 | 15% |
| Clc1cnc(Oc2ccccc2-n2cc(Br)cn2)nc1 | 20% |

====

test system: barnyardgrass; assay: Test A preemergence; format: in vivo, Echinochloa crus-galli; settings: 500 g ai/ha, 0 to 100 scale where 0 is no effect and 100 is complete control

| compound | Barnyardgrass plant response rating |
| --- | --- |
| N#Cc1cnc(Oc2cccc(C=O)c2-n2cc(Br)cn2)nc1 [Compound 174] | 0 |
| Clc1cnc(Oc2cccc(-c3cccnc3)c2-n2cc(Br)cn2)nc1 [Compound 290] | 0 |
| C=C(C)c1cccc(Oc2ncc(Cl)cn2)c1-n1cc(Br)cn1 [Compound 198] | 80 |
| FC(F)c1cccc(Oc2ncc(Br)cn2)c1-n1cc(I)cn1 [Compound 185] | 80 |
| CS(=O)(=O)c1cccc(Oc2ncc(Cl)cn2)c1-n1cc(Br)cn1 [Compound 142] | 0 |
| N#Cc1cc(F)cc(Oc2ncc(Br)cn2)c1-n1cc(Br)cn1 [Compound 239] | 100 |
| N#Cc1cccc(Oc2ncc(Cl)cn2)c1-n1cc([N+](=O)[O-])cn1 [Compound 304] | 0 |
| N#Cc1cccc(Oc2ncc(Cl)cn2)c1-n1cc(Br)cn1 [Compound 235] | 10 |
| Clc1cnc(Oc2cccc(Cl)c2-n2cc(Br)cn2)nc1 [Compound 219] | 90 |
| O=Cc1cccc(Oc2ncc(F)cn2)c1-n1cc(C(F)(F)F)cn1 [Compound 162] | 50 |
| N#Cc1cccc(Oc2ncc(Br)cn2)c1-n1cccn1 [Compound 165] | 20 |
| O=Cc1cccc(Oc2ncc(Cl)cn2)c1-n1cc(C(F)(F)F)cn1 [Compound 171] | 60 |
| Cc1ccc(Oc2ncc(Cl)cn2)c(-n2cc(Br)cn2)c1Br [Compound 202] | 10 |
| N#Cc1cccc(Oc2ncc(Cl)cn2)c1-n1cc(I)cn1 [Compound 204] | 100 |
| N#Cc1cnn(-c2c(Oc3ncc(Cl)cn3)cccc2C(F)F)c1 [Compound 236] | 100 |

====

tested on: sedge, umbrella; experiment: Test C flooded paddy test; format: in vivo, Cyperus difformis; settings: Flood, 62 g ai/ha; scale 0 to 100 (0 no effect, 100 complete control), 13 to 15 days
Each record here notes measured Plant response rating, Sedge, Umbrella.

| test smiles | Plant response rating, Sedge, Umbrella |
| --- | --- |
| FC(F)c1cnn(-c2ccccc2Oc2ncc(Br)cn2)c1 | 50 |
| FC(F)c1cccc(Oc2ncc(Br)cn2)c1-n1cc(Br)cn1 | 50 |
| FC(F)c1cccc(Oc2ncc(Cl)cn2)c1-n1cc(Br)cn1 | 75 |
| CCCOc1cnn(-c2c(C#N)cccc2Oc2ncc(Cl)cn2)c1 | 50 |
